- Target System: human serum albumin (human) (UniProt P02768)
- Sequence (P02768 25-609 limits assumed): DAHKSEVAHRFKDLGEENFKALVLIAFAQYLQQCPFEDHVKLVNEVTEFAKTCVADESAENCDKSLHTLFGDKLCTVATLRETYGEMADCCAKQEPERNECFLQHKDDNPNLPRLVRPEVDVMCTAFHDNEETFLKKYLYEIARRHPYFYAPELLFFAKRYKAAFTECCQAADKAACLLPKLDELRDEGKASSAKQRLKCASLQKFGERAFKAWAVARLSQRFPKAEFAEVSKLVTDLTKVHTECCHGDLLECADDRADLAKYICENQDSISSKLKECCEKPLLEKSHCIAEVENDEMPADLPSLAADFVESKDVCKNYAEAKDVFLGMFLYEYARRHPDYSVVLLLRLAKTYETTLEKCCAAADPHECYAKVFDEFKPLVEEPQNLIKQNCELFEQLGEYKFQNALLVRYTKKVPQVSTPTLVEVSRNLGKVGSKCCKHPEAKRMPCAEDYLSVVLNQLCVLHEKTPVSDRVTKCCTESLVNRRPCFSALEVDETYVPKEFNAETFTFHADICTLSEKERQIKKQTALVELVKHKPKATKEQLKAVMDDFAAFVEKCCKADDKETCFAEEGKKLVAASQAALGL
- Assay Protocol: primary solution ELISA screen
Test Readout: RLU (RLU)
Please respond with the number in RLU and leave the unit unwritten.

Answered cases to consult:
SEQ ID NO 65 (designed binder, not shown: small tags and cut ends) MLPAPKNLVVSRVTKDSARLSWTAPDAAFDSFPIAYAEPRPDGEAIVLTVPGSERSYDLTGLKPGTEYSVLIHGVKGGLLSSPLSAIFTT: 16000
SEQ ID NO 48 (designed binder, not shown: small tags and cut ends) MLPAPKNLVVSRVTEDSARLSWTAPDAAFDSFLIYYEEGYLEYYYSGEAIVLTVPGSERSYDLTGLKPGTEYYVGIVGVKGGGLSGPLSAISTT: 115000

The binder identified as SEQ ID NO 81 (designed binder, not shown: small tags and cut ends) MLPAPKNLVVSRVTEDSARLSWQGVARAFDSFLITYVELRHLGEAIVLTVPGSERSYDLTGLKPGTEYPVWIQGVKGGSPSAPLSAEFTT registered its RLU at 9850

Value of RLU reported for the binder SEQ ID NO 76 (designed binder, not shown: small tags and cut ends) MLPAPKNLVVSRVTEDSARLSWTAPDAAFDSFTIEYYENIGIGEAIVLTVPGSERSYDLTGLKPGTEYSVPIVGVKGGPYSHPLSAIFTT is 16300
